- Tested on: SW-620 colon
- assay-comment: NCI-60 one-dose screen, 48 h (100 = growth as untreated, 0 = no growth, -100 = all killed)
- condition-set: 10 µM unless noted
About 83,000 compounds went through this panel and 20% of them were active in at least one assay; those are over-represented in the sample as a whole.
The compounds listed here are annotated with their growth.
Reply numerically in %, unit not repeated.

# example entries with known answers
{"columns": ["compound", "measured-metric", "data-value"],
 "data": [
  ["C=C1C(=O)O[C@@H]2[C@H]3[C@H](COC(C)=O)[C@@H](OC(C)=O)C[C@H]3C(=C)[C@@H](O)C[C@@H]12", "growth", 84.4],
  ["CC1=C2[C@@H](CC1)[C@]1(C)O[C@@](C3CC3)(C[C@H]1OC(=O)CO)[C@H]2OC(=O)/C=C/c1ccccc1", "growth", 103]
]}

Ask: Value lookup for growth; key = COc1ccc(/C=C2/C(=O)N=C3N2NC(c2ccccc2)=CN3c2ccccc2)cc1
Reply: 101

Ask: // query growth value for entry CCOC(=O)C1=C(C)NC(=O)NC1c1c(Cl)n(-c2ccccc2)c2ccccc12 (stereo not given)
Reply: 83.2

Ask: // query growth value for entry O=C1Nc2ccccc2/C1=C/c1cccn1CCCCCn1c2ccccc2c(=O)c2ccccc21
Reply: 100
